Sourced from the supplement of paper PMC11061612

# Tested on: CAL-29 (Bladder Carcinoma);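 note: after 72 h of two-drug dosing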
# procedureSummary: Bliss excess, mean over the matrix (fraction); higher = more synergy
Consider the following compounds; for each one, report its Bliss excess.
Answer with a number only.

In: Name the recorded Bliss excess of the item Cc1c2c(nn1C)CSCc1cc(n(C)n1)CSc1cc(c3ccccc3c1)OCCCc1c(C(=O)O)n(C)c3c-2c(Cl)ccc13 [AZD5991] + C[C@@H]1COCCN1C2=NC(=NC(=C2)C3(CC3)[S@](=N)(=O)C)C4=C5C=CNC5=NC=C4 [AZD6738] (first compound max 1 µM, 7x7, partner max 10 µM) in your answer.
Out: 0.0409

In: Name the recorded Bliss excess of the item COc1cccc2c1C(=O)c1c(O)c3c(c(O)c1C2=O)C[C@@](O)(C(=O)CO)C[C@@H]3O[C@H]1C[C@H](N)[C@H](O)[C@H](C)O1 [Doxorubicin] + Cc1cc2ncnn2cc1Nc1ncc2c(n1)n(C1CCOCC1)c(=O)n2C [AZD7648] (first compound max 1 µM, 7x7, partner max 10 µM) in your answer.
Out: 0.0489

In: Name the recorded Bliss excess of the item NC1(C(=O)N[C@@H](CCO)c2ccc(Cl)cc2)CCN(c2ncnc3[nH]ccc23)CC1 [Capivasertib] + Cn1cnc2c(F)c(Nc3ccc(Br)cc3Cl)c(C(=O)NOCCO)cc21 [Selumetinib] (first compound max 10 µM, 7x7, partner max 10 µM) in your answer.
Out: -0.0058

In: Name the recorded Bliss excess of the item CC1(C)CCC(CN2CCN(c3ccc(C(=O)NS(=O)(=O)c4ccc(NCC5CCOCC5)c([N+](=O)[O-])c4)c(Oc4cnc5[nH]ccc5c4)c3)CC2)=C(c2ccc(Cl)cc2)C1 [Venetoclax] + C1CN(CCC1(C(=O)N[C@@H](CCO)C2=CC=C(C=C2)Cl)N)C3=NC=NC4=C3C=CN4 [Capivasertib] (first compound max 1 µM, 7x7, partner max 3 µM) in your answer.
Out: -0.0319

In: Name the recorded Bliss excess of the item CN(CCO)CC[C@H](CSc1ccccc1)Nc1ccc(S(=O)(=O)NC(=O)c2ccc(N3CCC([C@@H](O)c4ccccc4-c4ccc(Cl)cc4)CC3)cc2)cc1S(=O)(=O)C(F)(F)F [AZD4320] + Cn1cnc2c(F)c(Nc3ccc(Br)cc3Cl)c(C(=O)NOCCO)cc21 [Selumetinib] (first compound max 1 µM, 7x7, partner max 3 µM) in your answer.
Out: 0.0826

In: Name the recorded Bliss excess of the item Cn1cnc2c(F)c(Nc3ccc(Br)cc3Cl)c(C(=O)NOCCO)cc21 [Selumetinib] + CCN(CCO)CCCOc1ccc2c(Nc3cc(CC(=O)Nc4cccc(F)c4)[nH]n3)ncnc2c1 [AZD2811] (first compound max 10 µM, 7x7, partner max 1 µM) in your answer.
Out: 0.0023

In: Name the recorded Bliss excess of the item Cc1nc(Nc2ncc(C(=O)Nc3c(C)cccc3Cl)s2)cc(N2CCN(CCO)CC2)n1 [Dasatinib] + CC(=O)Nc1cccc(-n2c(=O)n(C3CC3)c(=O)c3c(Nc4ccc(I)cc4F)n(C)c(=O)c(C)c32)c1 [Trametinib] (first compound max 2 µM, 7x7, partner max 1 µM) in your answer.
Out: 0.0133

----------
# System: SK-MES-1 (Squamous Cell Lung Carcinoma)
# procedureSummary: combination Emax (second highest fraction inhibited in the dose matrix, 72 h); higher = more inhibition; extreme values may be limits of the assay
Consider the following compounds; for each one, report its combination Emax.
Answer with a number only.

In: Name the recorded combination Emax of the item Cn1cnc2c(F)c(Nc3ccc(Br)cc3Cl)c(C(=O)NOCCO)cc21 [Selumetinib] + C=CCn1c(=O)c2cnc(Nc3ccc(N4CCN(C)CC4)cc3)nc2n1-c1cccc(C(C)(C)O)n1 [AZD1775] (first compound max 10 µM, partner max 1 µM) in your answer.
Out: 0.631

In: Name the recorded combination Emax of the item Cc1c2c(nn1C)CSCc1cc(n(C)n1)CSc1cc(c3ccccc3c1)OCCCc1c(C(=O)O)n(C)c3c-2c(Cl)ccc13 [AZD5991] + CN(C)CCCOc1ccc(-c2ccc3ncc4c(c3c2)n(C2CCOCC2)c(=O)n4C)cn1 [AZD0156] (first compound max 1 µM, 7x7, partner max 1 µM) in your answer.
Out: 0.196

In: Name the recorded combination Emax of the item COc1nnc2ccc(N3CCC(c4ccc(OCCN5CCN(C)C(=O)[C@H]5C)cc4)CC3)nn12 [AZD5153] + Cc1c2c(nn1C)CSCc1cc(n(C)n1)CSc1cc(c3ccccc3c1)OCCCc1c(C(=O)O)n(C)c3c-2c(Cl)ccc13 [AZD5991] (first compound max 1 µM, 7x7, partner max 1 µM) in your answer.
Out: 0.558

In: Name the recorded combination Emax of the item CCN(CCO)CCCOc1ccc2c(Nc3cc(CC(=O)Nc4cccc(F)c4)[nH]n3)ncnc2c1 [AZD2811] + O=C(c1cc(Cc2n[nH]c(=O)c3ccccc23)ccc1F)N1CCN(C(=O)C2CC2)CC1 [Olaparib] (first compound max 1 µM, 7x7, partner max 10 µM) in your answer.
Out: 0.271
